Target: T1, human MSLN-R2-his protein (human, UniProt Q13421 391-486)
T1 construct: it is put last here; also called human MSLN-R2 protein; hMSLN-R2-his; not shown: His tag
T1 sequence (Q13421 other isoform, or with tags, fused parts or gaps): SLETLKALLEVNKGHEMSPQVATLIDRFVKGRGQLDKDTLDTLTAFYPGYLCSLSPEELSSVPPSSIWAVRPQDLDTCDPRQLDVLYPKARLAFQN
Test: ELISA on coated antigen, antibody 0.2 nM
Below, each of the binders is paired with its reported OD450 value.
ENDPOINT: OD450 (OD)

- S009-F7.25.19 (antibody, human IgG1, kappa, V domains shown, Human-murine chimeric antibody, human IgG1 heavy and kappa light constant regions) VH: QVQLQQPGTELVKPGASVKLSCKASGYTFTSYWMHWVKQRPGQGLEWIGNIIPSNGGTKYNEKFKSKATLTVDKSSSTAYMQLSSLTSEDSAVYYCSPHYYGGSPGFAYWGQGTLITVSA VL: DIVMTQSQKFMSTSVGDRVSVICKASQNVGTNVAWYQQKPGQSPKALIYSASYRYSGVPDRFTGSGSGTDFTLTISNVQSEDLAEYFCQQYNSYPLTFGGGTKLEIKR: 0.05
- S009-F7.11.11 (antibody, human IgG1, kappa, V domains shown, Human-murine chimeric antibody, human IgG1 heavy and kappa light constant regions) VH: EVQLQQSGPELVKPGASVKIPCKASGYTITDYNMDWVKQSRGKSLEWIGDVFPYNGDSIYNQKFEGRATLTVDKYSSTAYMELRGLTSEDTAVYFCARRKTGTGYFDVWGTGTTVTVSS VL: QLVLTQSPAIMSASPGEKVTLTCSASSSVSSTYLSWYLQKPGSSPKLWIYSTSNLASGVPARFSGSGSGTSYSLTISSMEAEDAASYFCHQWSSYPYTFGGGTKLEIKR: 0.05

Data origin: patent US20250250357A1
